Recorded values, source the RNAGym collection of RNA variant scans (doi:10.1038/s41586-018-0170-7).

B1: tRNA (parent)
chain: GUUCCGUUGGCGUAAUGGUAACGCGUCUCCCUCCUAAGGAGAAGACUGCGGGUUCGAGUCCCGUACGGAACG

# Variants of: B1
# assay-protocol: yeast fitness, log relative to wild type (ln ratio); higher = fitter; tRNA-Arg(CCU), competitive growth, 37 C, 1 M NaCl
The entries below are paired with their reported yeast fitness (ln).
attribute-measured: yeast fitness (ln)

sequence-change	reading
U2C G6A C66U A70G	-0.00663
U2C G6U C27U A43C C66A C71U	-0.176
U2G G6U A43C C66A A70G C71U	-0.265
U2G C27U A69G A70U	-0.0281
U2G G6A A43C A69G A70U	-0.171
G1A U2G C27U C46U A69G A70U C71U	-0.18
G6A A43C C66U A69G	-0.109
G1A A43C C66U A69G A70G	-0.243
G1A U2C C27U A43C A70U	-0.111
G1A G6U C27U C66A	-0.254
G1A G6A C27U A43C C46U A69G A70U C71U	-0.399
G6A C27U A43C C46U C66A A70U	-0.193
C27U C66U C71U	-0.173
G1A C27U A43C C46U C66A C71U	-0.231
U2C C27U C46U C66U C71U	-0.132
U2G G6A C27U A43C C66U A69G A70U	-0.326
G1A U2G C27U A43C C46U A69G	-0.212
U2G C27U C46U A69G	-0.0724
G6U A43C C66A A69G A70G	-0.373
G1A U2G G6U C66U	-0.203
G1A U2C G6U C27U A43C C46U C66U A69G A70G C71U	-0.316
U2C G6A C27U A43C A70U	-0.108
G6A C27U C66U A70G C71U	-0.249
U2G G6U C66A A70G C71U	-0.249
G1A U2G G6U C66U A69G C71U	-0.375
G1A G6U C27U C46U A69G A70G	-0.307
U2C C27U C66U A69G A70G C71U	-0.529
G1A U2G G6A C27U A69G A70U C71U	-0.526
